Recorded values, source patent US20050202033A1.

Molecular target: recombinant human or murine heat shock protein 70 (hsp70) (human or murine), P0DMV8
Sequence (P0DMV8 whole entry): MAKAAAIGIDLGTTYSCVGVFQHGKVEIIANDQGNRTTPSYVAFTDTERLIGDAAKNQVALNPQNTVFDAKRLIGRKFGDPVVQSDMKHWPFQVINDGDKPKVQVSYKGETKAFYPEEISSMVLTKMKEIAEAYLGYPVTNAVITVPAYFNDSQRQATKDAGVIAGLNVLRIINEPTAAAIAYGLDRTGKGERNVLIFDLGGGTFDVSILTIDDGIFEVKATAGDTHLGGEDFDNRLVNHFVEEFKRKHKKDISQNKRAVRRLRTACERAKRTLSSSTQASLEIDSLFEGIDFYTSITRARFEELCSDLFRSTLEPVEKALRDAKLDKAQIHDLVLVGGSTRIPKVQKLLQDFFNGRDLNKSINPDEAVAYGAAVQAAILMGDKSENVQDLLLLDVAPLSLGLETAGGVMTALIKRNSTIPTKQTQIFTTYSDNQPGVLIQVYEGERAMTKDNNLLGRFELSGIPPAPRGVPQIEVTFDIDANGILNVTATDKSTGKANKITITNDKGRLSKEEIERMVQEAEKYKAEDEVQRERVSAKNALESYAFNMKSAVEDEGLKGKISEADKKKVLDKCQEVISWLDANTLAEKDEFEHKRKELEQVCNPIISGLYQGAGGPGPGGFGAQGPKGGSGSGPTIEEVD
Test: binding inhibition assay as in Example 2, on hsp70
Hi there, I'd appreciate the recorded Kd for every entry that follows.
Give bare numbers, in nM.

Consider the binder KASEKIFYV (modifications not checked) [… (SSX-2: 41-49)] and give its measured Kd.
57000

Endpoint output: Kd of YLEPGPVTV (modifications not checked) [… (GP100: 280-288 (288V))] . Value?
71000

Quick one: Kd of SVYDFFVWLGSGNLLRLTGW (modifications not checked) ?
2900

Quick check: Kd of KASEKIFYVGSGNLLRLTGW (modifications not checked) ?
1400

Report Kd for YMDGTMSQVGSGNLLRLTGW (modifications not checked) […gsgNLLRLTGW] please.
1800

Consider the binder shown here: GLYDGMEHL (modifications not checked) [… (MAGE-10: 254-262)] What is its recorded Kd?
48000

Here is the next item to consider.
Return reported Kd; argument: SLLMWITQVGSGNLLRLTGW (modifications not checked)
2200
